- System Name: Uracil-DNA glycosylase (Escherichia coli (strain K12)) (UniProt P12295)
- Sequence (P12295 whole entry, looked up): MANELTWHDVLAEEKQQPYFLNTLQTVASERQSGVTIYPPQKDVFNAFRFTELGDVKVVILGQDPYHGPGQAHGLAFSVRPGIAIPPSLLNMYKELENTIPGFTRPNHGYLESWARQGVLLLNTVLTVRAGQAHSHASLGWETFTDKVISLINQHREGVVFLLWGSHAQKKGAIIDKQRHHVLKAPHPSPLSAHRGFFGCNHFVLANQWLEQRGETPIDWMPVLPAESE
- Assay Name: uracil-DNA glycosylase inhibition, oligo cleavage readout – biochemical, single concentration, fluorescence, FAM/TAMRA oligo, counter-screen for APOBEC3G inhibitor project, confirmation (AID 504715);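 note: plate controls were DMSO wells with UDG and oligo for no effect and DMSO wells lacking both for full effect; inhibitors lower the FAM signal released by uracil excision and alkaline cleavage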
- Details: UDG counterscreen, at 20 µM, active compounds read high
Some of the results follow.
The entries below come with measured inhibition values attached.
All answers are understood in %, so give the number only.

## Input Entry under review: "CCOc1ccc(NC(=O)c2ccc(NC(=O)COC(=O)c3ccc(NC(=O)CC#N)cc3)cc2)cc1" . Reported inhibition?
## Output 2.3

## Input Again, but for "O=C1C=CC(=O)N1c1ccc(N2CCCCC2)cc1"
## Output -1.51

## Input // next record "Cc1nc([N+](=O)[O-])nn1C12CC3CC(CC(Br)(C3)C1)C2"
## Output 2.58

## Input What do you have for "Cc1ccc(C(=O)c2c(NC(=O)c3ccccc3)sc(C)c2C)cc1" ?
## Output 2.57

## Input Next compound up: "S=c1[nH]ccn1-c1ccc(Cl)cc1"
## Output 2.81

## Input Same question for "Cc1ccc(NC(=O)c2sc3nc(N)c(C#N)cc3c2N)cc1" please.
## Output -3.69

## Input S=c1[nH]nc(-c2ccc(Cl)cc2)n1CC1CCCO1 (stereo not given) , same question.
## Output 2.84

## Input Cool, now "CCc1c(C)[nH]c(=S)c(C#N)c1C"
## Output -0.5

## Input Similarly, "Fc1ccc(Nc2nnns2)cc1" ?
## Output 3.44

## Input Then what about the compound "CC1=C/C(=N\OS(=O)(=O)c2ccccc2)C=CC1=O" ?
## Output 1.47

## Input Could you do the same for "Cc1cc(-c2n[nH]c(=S)n2/N=C/c2ccco2)n[nH]1" , please?
## Output 2.12

## Input Record: "Cc1cc(C)c2c(-c3ccc(F)cc3)c(C#N)c(=O)n(C)c2n1"
## Output -3.68

## Input Another compound to look at: "CCOC(=O)c1sc(=S)n2c1[nH]c(=O)c1ccc(C(=O)OC)cc12"
## Output 1.35

## Input Again, but for "Fc1ccccc1/C=N/n1c(-c2cccnc2)n[nH]c1=S"
## Output 0.6

## Input # iterate: "CC(C)(C)c1nnc(NC(=O)C2c3ccccc3Oc3ccccc32)s1"
## Output -3.35

## Input Same question for "S=c1[nH]nc(Nc2ccccc2)s1" please.
## Output 6.03

## Input Continue with "COC(=O)c1cccc(-n2[nH]nnc2=S)c1"
## Output -3.23

## Input // query: "Cc1n[nH]c(=S)n1/N=C/c1ccc(Br)o1"
## Output -0.61

## Input Field entry: Nc1ccccc1SC(C[N+](=O)[O-])c1ccccc1 (stereo not given)
## Output -4.66

## Input How about COc1ccc(OCc2nnc3n2N=C(c2ccccc2)C(CC(=O)O)S3)cc1 (stereo not given) ?
## Output -3.19

====

- System Name: Uracil-DNA glycosylase (Escherichia coli (strain K12)) (UniProt P12295)
- Assay Name: uracil-DNA glycosylase inhibition, oligo cleavage readout – biochemical, single concentration, fluorescence, FAM/TAMRA oligo, counter-screen for APOBEC3G inhibitor project, confirmation (AID 504715);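 note: plate controls were DMSO wells with UDG and oligo for no effect and DMSO wells lacking both for full effect; inhibitors lower the FAM signal released by uracil excision and alkaline cleavage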
- Details: UDG counterscreen, at 20 µM, active compounds read high
The other results are listed elsewhere or left out.
Endpoint Label: inhibition (%)
Numeric only. Scale: %

COc1cccc(C(=O)CC(=O)C(=O)Nc2ccc([N+](=O)[O-])cc2C)c1 | 3.46
COc1ccc(N2C(=O)CC(Sc3n[nH]c(-c4ccc(C)cc4)n3)C2=O)cc1 (stereo not given) | -1.53
Cc1ccnc(-n2sc3ccccc3c2=O)n1 | -5.94

## Input Please report the recorded inhibition for O=C1CC(Sc2ncn[nH]2)C(=O)N1c1ccccc1 (stereo not given) .
## Output -0.97

## Input Thanks! And "COc1ccccc1-n1c(-c2cc(-c3ccco3)[nH]n2)n[nH]c1=S" ?
## Output -3.83
